# System: A549
# run description: Euclidean distance of Cell Painting phenotypic profile (signed KS, 77 features) to DMSO centroid (dimensionless distance); higher = stronger phenotypic change vs DMSO (phenoactivity)
# assay conditions: 48 h; 5 or 10 uM (library dependent)
Structures can show the parent of a compound that is named as a salt.
This section presents compounds with their documented Euclidean distance values.
Answer using only a numeral; do not append any unit.

>  <compound>
C#C[C@]1(O)CC[C@H]2[C@@H]3CCC4=CC(=O)CC[C@]4(C)[C@H]3CC[C@@]21C [Ethisterone]

>  <Euclidean distance>
0.836

$$$$

Q) Look up Euclidean distance for this compound: Cc1sc2c(c1C)C(c1ccc(Cl)cc1)=N[C@@H](CC(=O)Nc1ccc(O)cc1)c1nnc(C)n1-2
A) 2.08

Q) And then CCCN1C[C@H](CSC)C[C@@H]2c3cccc4[nH]cc(c34)C[C@H]21 [Pergolide mesylate] , what is it?
A) 0.713

Q) And then Cc1cc2c(C(C)C)c(O)c(O)c(C=O)c2c(O)c1-c1c(C)cc2c(C(C)C)c(O)c(O)c(C=O)c2c1O [Gossypol] , what is it?
A) 2.66

Q) And then CCCN1C[C@H](CSC)C[C@@H]2c3cccc4[nH]cc(c34)C[C@H]21 [Pergolide Mesylate] , what is it?
A) 1.03

Q) And then Oc1ccc(Cl)cc1Cc1cc(Cl)ccc1O [Dichlorophene] , what is it?
A) 1.05

Q) And then C=C1C[C@@H]2[C@H](CC[C@]3(C)C(=O)CC[C@@H]23)[C@@]2(C)C=CC(=O)C=C12 [Exemestane] , what is it?
A) 1.06

Q) And then CN1C(=O)CCS(=O)(=O)C1c1ccc(Cl)cc1 (configuration not stated) [Chlormezanone] , what is it?
A) 0.681

Q) And then CCC1=C[C@H]2CN3CCc4c([nH]c5ccccc45)[C@](C(=O)OC)(C2)[C@H]13 [Catharanthine] , what is it?
A) 1.4

Q) And then Clc1ccc(C(OCCN2CCCCC2)c2ccccc2)cc1 (configuration not stated) [Cloperastine hydrochloride] , what is it?
A) 1.16

Q) And then CCCCCc1cc(O)cc(O)c1 [Olivetol] , what is it?
A) 0.742

Q) And then COc1cc(C)[nH]c(=O)c1CNC(=O)c1c(C)n([C@H](C)C2CCN(CC(F)(F)F)CC2)c2ccccc12 , what is it?
A) 1.09

Q) And then C[C@]12CC[C@@H](O)C[C@@H]1CC[C@@H]1[C@@H]2CC[C@]2(C)C(=O)CC[C@@H]12 [Androsterone] , what is it?
A) 0.773

Q) And then CCOC(=O)c1cncn1[C@H](C)c1ccccc1 [Etomidate] , what is it?
A) 1.77

Q) And then CNCC(O)c1ccc(O)cc1 (configuration not stated) [Synephrine HCl] , what is it?
A) 0.451

Q) And then CN1CCc2cc3c(cc2C1C1OC(=O)c2c1ccc1c2OCO1)OCO3 (single isomer, unassigned; (+)) [(+)-Bicuculline] , what is it?
A) 0.94

Q) And then Fc1cc(F)c2c(c1)[C@H]1C=CC[C@H]1C(c1cccnc1)N2 (some centres not stated) [Golgicide A] , what is it?
A) 0.432

---

# System: HEPG2
# run description: Euclidean distance of Cell Painting phenotypic profile (signed KS, 77 features) to DMSO centroid (dimensionless distance); higher = stronger phenotypic change vs DMSO (phenoactivity)
# assay conditions: 48 h; 5 or 10 uM (library dependent)
Binary call on Euclidean distance: YES from 1 upward, NO beneath that.

A selection of reference data follows.
>  <compound>
CN1[C@@H]2CC[C@H]1C[C@@H](OC(=O)C(CO)c1ccccc1)C2 (stereo not given in full) [Atropine]

>  <measurement target>
HEPG2

>  <class label>
YES

$$$$
>  <compound>
CC[C@H](C)[C@@H]([C@@H](CC(=O)N1CCC[C@H]1[C@H](OC)[C@@H](C)C(=O)N[C@H](C)[C@@H](O)c1ccccc1)OC)N(C)C(=O)[C@@H](NC(=O)[C@@H](NC)C(C)C)C(C)C

>  <measurement target>
HEPG2

>  <class label>
YES

$$$$
>  <compound>
CN[C@@H]1[C@@H](O)[C@@H](O[C@@H]2[C@@H](O)[C@H](O[C@H]3O[C@H](CN)CC[C@H]3N)[C@@H](N)C[C@H]2N)OC[C@]1(C)O.CN[C@@H]1[C@@H](O)[C@@H](O[C@@H]2[C@@H](O)[C@H](O[C@H]3O[C@H]([C@@H](C)N)CC[C@H]3N)[C@@H](N)C[C@H]2N)OC[C@]1(C)O.CN[C@@H]1[C@@H](O)[C@@H](O[C@@H]2[C@@H](O)[C@H](O[C@H]3O[C@H]([C@@H](C)NC)CC[C@H]3N)[C@@H](N)C[C@H]2N)OC[C@]1(C)O [Gentamicin Sulfate]

>  <measurement target>
HEPG2

>  <class label>
NO

$$$$
>  <compound>
CC(C)[C@]12O[C@H]1[C@@H]1O[C@]13[C@]1(O[C@H]1C[C@H]1C4=C(CC[C@@]13C)C(=O)OC4)[C@@H]2O [Triptolide (PG490)]

>  <measurement target>
HEPG2

>  <class label>
YES

$$$$

Turning now to a further compound:
Q) Check this compound for Euclidean distance at or above 1: CCNC(=O)C[C@@H]1N=C(c2ccc(Cl)cc2)c2cc(OC)ccc2-n2c(C)nnc21
A) YES

---

# Test system: HEPG2
# run description: Euclidean distance of Cell Painting phenotypic profile (signed KS, 77 features) to DMSO centroid (dimensionless distance); higher = stronger phenotypic change vs DMSO (phenoactivity)
# assay conditions: 48 h; 5 or 10 uM (library dependent)
Structures can show the parent of a compound that is named as a salt.
Binary call on Euclidean distance: Yes from 0.8 upward, No beneath that.

A selection of reference data follows.
>  <compound>
C=CCN1C[C@H](C(=O)N(CCCN(C)C)C(=O)NCC)C[C@@H]2c3cccc4[nH]cc(c34)C[C@H]21 [Cabergoline]

>  <class label>
Yes

$$$$
>  <compound>
CCCN1C[C@H](CSC)C[C@@H]2c3cccc4[nH]cc(c34)C[C@H]21 [Pergolide mesylate]

>  <class label>
Yes

$$$$
>  <compound>
CCC(=O)O[C@H]1CC[C@H]2[C@@H]3CC[C@H]4CC(=O)[C@H](C)C[C@]4(C)[C@H]3CC[C@]12C [Drostanolone Propionate]

>  <class label>
Yes

$$$$
>  <compound>
O=[N+]([O-])O[C@@H]1CO[C@H]2[C@@H]1OC[C@@H]2O [Isosorbide Mononitrate]

>  <class label>
Yes

$$$$
>  <compound>
C=CC1CN2CCC1CC2C(O)c1ccnc2ccccc12 (stereo not drawn)

>  <class label>
No

$$$$

Q) Check this compound for Euclidean distance at or above 0.8: COC1=C[C@@H]2[C@@H]3Cc4ccc(OC)c(O)c4[C@]2(CCN3C)CC1=O [Sinomenine]
A) No

Q) And then COc1ccc2c(c1)[nH]c1c(C)nccc12 [Harmine hydrochloride] , what is it?
A) Yes

Q) And then C[S+]([O-])CCCCN=C=S (stereo not drawn) [sulforaphane] , what is it?
A) Yes

Q) And then N[C@@H]1C[C@H]1c1ccccc1 [Tranylcypromine (2-PCPA) HCl] , what is it?
A) Yes

Q) And then O=C(O)CNC(=O)C1C(=O)N(C2CCCCC2)C(=O)N(C2CCCCC2)C1=O , what is it?
A) Yes

---

This section presents compounds with their documented Euclidean distance values.
# Tested on: DU145
# run description: Euclidean distance of Cell Painting phenotypic profile (signed KS, 77 features) to DMSO centroid (dimensionless distance); higher = stronger phenotypic change vs DMSO (phenoactivity)
# assay conditions: 48 h; 5 or 10 uM (library dependent)
Counter-ions that a name gives are not always drawn.
Answer using only a numeral; do not append any unit.

>  <compound>
O=P1(NCCCl)OCCCN1CCCl (centres undefined) [Ifosfamide]

>  <Euclidean distance>
1.12

$$$$

Q) Look up Euclidean distance for this compound: CN1CCc2cc3c(cc2C1C1OC(=O)c2c1ccc1c2OCO1)OCO3 (single isomer, unassigned; (+)) [(+)-Bicuculline]
A) 0.878

Q) And then COc1cc2c(cc1OC)[C@@]13CCN4CC5=CCO[C@H]6CC(=O)N2[C@H]1[C@H]6[C@H]5C[C@H]43 [Brucine sulfate salt hydrate] , what is it?
A) 0.987

Q) And then C=C[C@H]1CN2CC[C@H]1C[C@H]2[C@H](O)c1ccnc2ccccc12 [Cinchonidine] , what is it?
A) 1.16

---

# Test system: DU145
# run description: Euclidean distance of Cell Painting phenotypic profile (signed KS, 77 features) to DMSO centroid (dimensionless distance); higher = stronger phenotypic change vs DMSO (phenoactivity)
# assay conditions: 48 h; 5 or 10 uM (library dependent)
Structures can show the parent of a compound that is named as a salt.
observation type: Euclidean distance

Known results for compounds:
>  <compound>
COC(=O)C[C@](O)(CCC(C)(C)O)C(=O)O[C@@H]1C(OC)=C[C@]23CCCN2CCc2cc4c(cc2[C@H]13)OCO4

>  <measurement target>
DU145

>  <Euclidean distance>
4.37

$$$$
>  <compound>
CCC(COC(=O)c1cc(OC)c(OC)c(OC)c1)(c1ccccc1)N(C)C (stereo not given)

>  <measurement target>
DU145

>  <Euclidean distance>
0.604

$$$$
>  <compound>
Cc1cccc(Cc2c[nH]cn2)c1C [Detomidine HCl]

>  <measurement target>
DU145

>  <Euclidean distance>
1.16

$$$$
>  <compound>
C[C@](O)(COc1ccc(C#N)cc1)C(=O)Nc1ccc(C#N)c(C(F)(F)F)c1

>  <measurement target>
DU145

>  <Euclidean distance>
0.792

$$$$

# input for lookup
Q) Look up Euclidean distance for this compound: CC1(C)CC(O)CC(C)(C)N1[O]
A) 1.18
